Source of measurements: PubChem BioAssay AID1745847

Experiment: CMV-Luciferase Counterscreen for Inhibitors of ATXN expression; also: nearly all actives have a fitted effect of over 55% in size; also: potency is read from the fitted curve at half-maximal effect
Settings: HEK-293 CMV-luciferase reporter, luminescence, 24 h; series mostly up to 57.5 µM
Hit rate of the full screen: of about 2,100 compounds, about 670 (32%) were called active. Inconclusive results (about 50%) are left out. Some of the results follow.
# Potency listing for each entry below

Reference set (3 entries):
1. Oc1cccc(C(Nc2nccs2)c2ccc3cccnc3c2O)c1 (stereo not given); 2820 nM (active)
2. Cc1ccc(/C=C2\SC(=S)N(CCCC(=O)Nc3cccnc3)C2=O)cc1; 3980 nM (active)
3. Cc1cc(C2=NNC(=NC3CC3)SC2)c(C)n1-c1ccccc1F; 631 nM (active)

# compound Oc1c(C(Nc2ccccn2)c2ccccn2)ccc2cccnc12 (stereo not given) ; its Potency = 2820 nM (active)

###

Assay: CMV-Luciferase Counterscreen for Inhibitors of ATXN expression; also: nearly all actives have a fitted effect of over 55% in size; also: potency is read from the fitted curve at half-maximal effect
Settings: HEK-293 CMV-luciferase reporter, luminescence, 24 h; series mostly up to 57.5 µM
Screen size: about 2,100 compounds; about 670 (32%) were called active. About 50% were inconclusive and are not listed. The list shows a part of the results.
# Potency listing for each entry below

Reference set (6 entries):
1) O=C(CCSc1nc2ccccc2s1)N/N=C/c1c(O)ccc2ccccc12; 7.94 µM (active)
2) COc1ccc(CC(=O)Nc2nc(-c3ccc(OC)c(OC)c3)cs2)cc1OC; 3.55 µM (active)
3) C/C(=N\NC(=O)CN(c1ccccc1)S(C)(=O)=O)c1ccccc1O; 12.6 µM (active)
4) COc1ccc(CC(=O)Nc2nc(-c3ccc(F)c(F)c3)cs2)cc1OC; 6.31 µM (active)
5) N#Cc1nc(Cc2cccc3ccccc23)oc1NCc1ccc(F)cc1; 12.6 µM (active)
6) O=[N+]([O-])c1cc(CN2CCN(c3ccccc3)CC2)c(O)c2ncccc12; 7.94 µM (active)

# compound Cc1onc(-c2c(Cl)cccc2Cl)c1C(=O)N/N=C(\N)COc1ccc(Cl)cc1 ; its Potency = 3.55 µM (active)

# compound CCOC(=O)c1c(-c2ccccc2)oc2cc(CN(C)C)c(O)c(CN(C)C)c12 ; its Potency = 8.91 µM (active)

# compound Cc1cc(C)c(C(=O)/C=C/c2ccc(C(C)C)cc2)c(=O)[nH]1 ; its Potency = 8.91 µM (active)

# compound Cc1ccc(NS(=O)(=O)c2ccc(NC(=O)C(C)Sc3ccc(Cl)cc3)cc2)c(C)c1 (stereo unspecified) ; its Potency = 25.1 µM (active)

###

Assay: CMV-Luciferase Counterscreen for Inhibitors of ATXN expression; also: nearly all actives have a fitted effect of over 55% in size
Settings: HEK-293 CMV-luciferase reporter, luminescence, 24 h; series mostly up to 57.5 µM
Source text: PI: Daniel Scoles Ph.D. University of Utah School of Medicine, Salt Lake City, Utah MLPCN Grant: NS073009 Spinocerebellar ataxia type 2 (SCA2) is a multisystem neurodegenerative disease caused by a dominantly acting mutation leading to expansion of a polyQ domain in the ataxin-2 protein (ATXN2). SCA2 patients develop progressive ataxia and later lose function in other neuronal systems. […] Here we describe a 5-7 dose quantitative high thoroughput screen (qHTS) for compounds lowering ATXN2 expression. […]
Out of some 2,100 compounds screened, about 670 (32%) were called active. Roughly 50% stayed inconclusive and do not appear here. The call rests on the fitted dose curve; in most records, active means well fitted inhibition curve with a large enough effect; inconclusive means small, poorly fitted or top-dose-only effect; inactive means no such curve, though single readings can be large or run the other way. The list shows a part of the results.
Field 'call' accepts active, inactive

Recorded results for 6 compounds are shown here.
1) CCCCC(=O)NC(c1ccc(N(C)C)cc1)c1ccc2cccnc2c1O (stereo not given); active
2) CCCCOc1ccccc1NC(=O)Cn1c(-c2nonc2N)nc2ccccc21; inactive
3) Cc1cccc(OCC(=O)NCC(=O)N/N=C/c2cc(Br)cc(Br)c2O)c1; active
4) CC1(C)Cc2ccccc2C2=NNC(=O)C2=N1; active
5) O=C(Cc1ccccc1)N/N=C/c1cc(Br)cc(Br)c1O; active
6) O=C(COc1ccccc1)NCC(=O)N/N=C/c1ccc(O)cc1O; active

Hello, I am checking results. What call was entered for COCCCn1c(N)c(-c2nc3ccccc3n2C)c2nc3ccccc3nc21 ?
active

Hello, I am checking results. What call was entered for Cc1ccc(Cc2cnc(NC(=O)/C(C#N)=C/c3ccc(-c4cccc([N+](=O)[O-])c4)o3)s2)cc1 ?
inactive

Hello, I am checking results. What call was entered for Clc1ccc(-c2cc(C3CCNCC3)[nH]n2)c(Cl)c1 ?
inactive

Hello, I am checking results. What call was entered for COc1ccccc1C(=O)Nc1nc(-c2ccc(S(=O)(=O)N3CCOCC3)cc2)cs1 ?
active
